assay: Elimination half-life in Sprague-Dawley rat at 1 mg/kg, iv incubated for 24 hrs by LC/MS/MS method; format: ADME, organism-based; conditions: in vivo, read-out: beta t1/2 (converted)
Recorded half-life values for a group of molecules are listed next.

Please review the following examples before continuing.
chemical_smiles	half-life
O=C(/C=C/CNC1CC1)Nc1cc2c(Nc3ccc(F)c(Cl)c3)ncnc2cc1O[C@H]1CCOC1	3.15 h
CN(C)C/C=C/C(=O)Nc1cc2c(Nc3ccc(F)c(Cl)c3)ncnc2cc1O[C@H]1CCOC1	9.6 h
CC(C)NC/C=C/C(=O)Nc1cc2c(Nc3ccc(F)c(Cl)c3)ncnc2cc1O[C@H]1CCOC1	9.9 h
C#Cc1cccc(Nc2ncnc3cc(O[C@H]4CCOC4)c(NC(=O)/C=C/CNC(C)C)cc23)c1	1.5 h

Now for a further molecule.
// half-life value for `C#Cc1cccc(Nc2ncnc3cc(O[C@H]4CCOC4)c(NC(=O)/C=C/CNC4CC4)cc23)c1` : 2.3 h

----------
Listed here: molecules with reported IC50 for Epidermal growth factor receptor (Homo sapiens, UniProt P00533).
Please reply with the bare figure in nM and do not write the unit itself.

// IC50 value for `C#Cc1cccc(Nc2ncnc3cc(OCC)c(NC(=O)/C=C/CN(C)C4CC4)cc23)c1` : 2.4

// IC50 value for `CCOc1cc2ncnc(Nc3ccc(F)c(Cl)c3)c2cc1NC(=O)/C=C/CNC1CC1` : 0.9

// IC50 value for `COc1cc2ncnc(Nc3ccc(F)c(Cl)c3)c2cc1NC(=O)/C=C/CNC1CC(F)(F)C1` : 141

// IC50 value for `C=CC(=O)Nc1cc2c(Nc3ccc(F)c(C#N)c3)ncnc2cc1OCCOC` : 196

// IC50 value for `C=CC(=O)Nc1cc2c(Nc3ccc(OCc4cccc(F)c4)cc3)ncnc2cc1O[C@H]1CCOC1` : 72.2

----------
Listed here: compounds with reported pIC50 for Epidermal growth factor receptor (Homo sapiens, UniProt P00533).
To interpret pIC50, take it as minus log10 of a concentration measured in moles per litre.

chemical_smiles	pIC50
C#Cc1cccc(Nc2ncnc3cc(OCC)c(NC(=O)/C=C/CN4CCCCC4)cc23)c1	8.21

// pIC50 value for `O=C(/C=C/CN1CC[S+]([O-])CC1)Nc1cc2c(Nc3ccc(F)c(Cl)c3)ncnc2cc1O[C@H]1CCOC1` : 6.96

// pIC50 value for `CCOc1cc2ncnc(Nc3ccc(F)c(Cl)c3)c2cc1NC(=O)/C=C/CN(C)C1CC1` : 8.26

// pIC50 value for `C#Cc1cccc(Nc2ncnc3cc(OC4CCN(C)CC4)c(NC(=O)/C=C/CN(C)C)cc23)c1` : 8.09

// pIC50 value for `COCCOc1cc2ncnc(Nc3ccc(OCc4ccccn4)cc3)c2cc1NC(=O)/C=C/CN(C)C` : 8.00

// pIC50 value for `C#Cc1cccc(Nc2ncnc3cc(O[C@H]4CCOC4)c(NC(=O)/C=C/CN4CCCCC4)cc23)c1` : 8.28

// pIC50 value for `C#Cc1cccc(Nc2ncnc3cc(OC)c(NC(=O)/C=C/CNC4CC4)cc23)c1` : 8.10

// pIC50 value for `COCCOc1cc2ncnc(Nc3ccc(F)c(Cl)c3)c2cc1NC(=O)/C=C/CN(C)C` : 8.92
